- Tested on: biotinyl-Leu-oxazolone
- experimental.protocol: self-aminoacylation, catalytic enhancement (BLO) (fold over background); higher = more active; k-Seq, kA / k0A0; sequences stand for … in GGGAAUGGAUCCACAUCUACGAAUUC…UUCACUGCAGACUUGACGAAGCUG
Variants at the floor of the assay were thinned out.
readout.name: self-aminoacylation
Give the figure by itself; no unit, no explanation.

AUUGACCUAGGACAUCGGGUG [Fam2.2 aminoacylation ribozyme variant]: 4.56
UUUACCCUGGUAAUCGAGUGA [Fam2.1 aminoacylation ribozyme variant]: 8.58
AGGUUUGCUAAUAGUCGCCAG [Fam3.1 aminoacylation ribozyme variant]: 1.52
AUUACCCUGGCUAUCGAGUGA [Fam2.1 aminoacylation ribozyme variant]: 2.35
AUUAUCCUGGUCAUCGAGUGA [Fam2.1 aminoacylation ribozyme variant]: 13.5

Find the measured self-aminoacylation: item AUUCAACUAGGUCAUCUGGUG [Fam2.2 aminoacylation ribozyme variant] , target or system biotinyl-Leu-oxazolone.
3.55

Item: AAGUUUGCUAGUAGUCCCAAG [Fam3.1 aminoacylation ribozyme variant]
0.873

Ok, now AUUACCCUGGUCAUCGAGGAA [Fam2.1 aminoacylation ribozyme variant]
5.25

Same question, AUUCACUUAGGUCAUCGCGUG [Fam2.2 aminoacylation ribozyme variant] this time
15

* * *

- Test system: biotinyl-Trp-oxazolone
- experimental.protocol: self-aminoacylation, catalytic enhancement (BWO) (fold over background); higher = more active; k-Seq, kA / k0A0; sequences stand for … in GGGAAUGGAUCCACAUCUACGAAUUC…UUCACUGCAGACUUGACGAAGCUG
Fewer inactive variants are shown than the library holds.
The label depends only on self-aminoacylation: label 1 if it is at least 3, label 0 if it is smaller.

# example entries with known answers
AAGUAUGCUAUUAGUCGCAAG [Fam3.1 aminoacylation ribozyme variant]: label 0
CCACACUUAAAGCCAUCGGUC [Fam1B.1 aminoacylation ribozyme variant]: label 0
AUUCACCUUGGUGAUCGGGUG [Fam2.2 aminoacylation ribozyme variant]: label 1
AAGUCUGCUAAUAGUCGCAGG [Fam3.1 aminoacylation ribozyme variant]: label 0
AUUCACCUACGUCAUCCGGUG [Fam2.2 aminoacylation ribozyme variant]: label 1

Does self-aminoacylation meet or surpass 3 for AUUACCCUGGUCACCGCGUGA [Fam2.1 aminoacylation ribozyme variant] ?
label 1

* * *

- Tested on: biotinyl-Val-oxazolone
- experimental.protocol: self-aminoacylation, catalytic enhancement (BVO) (fold over background); higher = more active; k-Seq, kA / k0A0; sequences stand for … in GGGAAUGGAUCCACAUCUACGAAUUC…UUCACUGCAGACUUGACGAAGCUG
Fewer inactive variants are shown than the library holds.
readout.name: self-aminoacylation
Reply: number alone, nothing else.

Some entries whose results are on file:
CCACACUUCAUGCAAUCGAUC [Fam1B.1 aminoacylation ribozyme variant]: 0.721
AUUACCCUGAGCAUCGAGUGA [Fam2.1 aminoacylation ribozyme variant]: 2.45
AUUCACCUAGUUCAUCGGGCG [Fam2.2 aminoacylation ribozyme variant]: 1.93
CCACUCGUCAAGCAAUCGGUC [Fam1B.1 aminoacylation ribozyme variant]: 1.58
CAGUUUGCUAAUAGUCGCAAG [Fam3.1 aminoacylation ribozyme variant]: 1.21

Form field: reported self-aminoacylation of ACUACCCUGUUCAUCGAGUGA [Fam2.1 aminoacylation ribozyme variant]
2.33

How about this sequence: CAUCACCUAGGUCAUCGGGUG [Fam2.2 aminoacylation ribozyme variant]
4.05

Next up: UCACACUUCAAGCAAUCCGUC [Fam1B.1 aminoacylation ribozyme variant]
1.25

# iterate: GCACACUUCCAGCAAUCGGUC [Fam1B.1 aminoacylation ribozyme variant]
2.31

Similarly, AUUUCCCUGGUCACCGAGUGA [Fam2.1 aminoacylation ribozyme variant] ?
4.43

Another: CCACACGUCAAGCAAUCGGAC [Fam1B.1 aminoacylation ribozyme variant]
2.03

Now consider AUUACCCUGGUCAUCGAGCGG [Fam2.1 aminoacylation ribozyme variant] and answer again.
1.8

Another sequence: AUUGACCUAAGUCAUCGGGUG [Fam2.2 aminoacylation ribozyme variant]
5.26

Could you do the same for CCACACAUCAAGCAACCGGUC [Fam1B.1 aminoacylation ribozyme variant] , please?
1.13
